All figures here come from patent US7118895B2.

System: Crude diglycosidase
Assay: Examination of temperature in the conversion into isoflavone aglycons by diglycosidase using soybean materials
Type: biochemical, Penicillium multicolor IAM7153
Conditions: 55° C., heat treatment of enzyme no, reaction time 1 h
Measure Name: Decomposition efficiency of daidzin family in concentrated soybean protein (%)

{"Smiles Record": "O=c1c(-c2ccc(O)cc2)coc2cc(O)ccc12", "Unit Text": "%", "Result Value": 55.0}
{"Smiles Record": "O=c1c(-c2ccc(O)cc2)coc2cc(O[C@@H]3O[C@H](CO)[C@@H](O)[C@H](O)[C@H]3O)ccc12", "Unit Text": "%", "Result Value": 1.0}
{"Smiles Record": "CC(=O)OC[C@H]1O[C@@H](Oc2ccc3c(=O)c(-c4ccc(O)cc4)coc3c2)[C@H](O)[C@@H](O)[C@@H]1O", "Unit Text": "%", "Result Value": 44.0}

###

Test system: Crude diglycosidase
Assay: Examination of temperature in the conversion into isoflavone aglycons by diglycosidase using soybean materials
Assay type: biochemical, Penicillium multicolor IAM7153
Set-up: concentration or dose not given beside the values
Details: 80° C., heat treatment of enzyme no, reaction time 1 h
Experimental: Into 400 μL of 20 mM acetate buffer of pH 4.0 was suspended 50 mg of each of various soybean materials (roasted soy flour (manufactured by Fuji Shokuryo K.K.), soymilk (manufactured by Gitoh Shokuhin K.K.), defatted soybean (manufactured by Fuji Seiyu K.K.), concentrated soybean protein (manufactured by Fuji Seiyu K.K.)), whereby a substrate solution was prepared. Crude diglycosidase was diluted with 20 mM acetate buffer of pH 4.0 to be the glycosidase activity of 1.88 AU/mL. […]
# key: entry, value: Decomposition efficiency of daidzin family in defatted soybean
Measure Name: Decomposition efficiency of daidzin family in defatted soybean (%)

{"Smiles Record": "O=c1c(-c2ccc(O)cc2)coc2cc(O)ccc12", "Result Value": 52.4}
{"Smiles Record": "O=C(O)CC(=O)OC[C@H]1O[C@@H](Oc2ccc3c(=O)c(-c4ccc(O)cc4)coc3c2)[C@H](O)[C@@H](O)[C@@H]1O", "Result Value": 39.8}
{"Smiles Record": "O=c1c(-c2ccc(O)cc2)coc2cc(O[C@@H]3O[C@H](CO)[C@@H](O)[C@H](O)[C@H]3O)ccc12", "Result Value": 7.8}

###

Test system: Crude diglycosidase
Assay: Examination of temperature in the conversion into isoflavone aglycons by diglycosidase using soybean materials
Format: biochemical, Penicillium multicolor IAM7153
Design: concentration or dose not given beside the values
Settings: 45 °C; heat treatment of enzyme: no; 1 h
Measure Name: Decomposition efficiency of daidzin family in roasted soy flour (%)

{"Compound": "O=c1c(-c2ccc(O)cc2)coc2cc(O[C@@H]3O[C@H](CO)[C@@H](O)[C@H](O)[C@H]3O)ccc12 [daidzin]", "Result Value": 3.6}
{"Compound": "CC(=O)OC[C@H]1O[C@@H](Oc2ccc3c(=O)c(-c4ccc(O)cc4)coc3c2)[C@H](O)[C@@H](O)[C@@H]1O [acetyldaidzin, 6″-O-acetyldaidzin]", "Result Value": 42.9}
{"Compound": "O=c1c(-c2ccc(O)cc2)coc2cc(O)ccc12 [daidzein]", "Result Value": 53.5}

###

The entries below are paired with their reported Decomposition efficiency of glycitin family in concentrated soybean protein.
Test system: Crude diglycosidase
Test: Examination of pH in the conversion into isoflavone aglycons by diglycosidase using soybean materials
Type: biochemical, Penicillium multicolor IAM7153
Details: pH1.6; heat treatment of enzyme: no; reaction time 6 h
Measure Name: Decomposition efficiency of glycitin family in concentrated soybean protein (%)

{"Smiles Record": "COc1cc2c(=O)c(-c3ccc(O)cc3)coc2cc1O[C@@H]1O[C@H](CO)[C@@H](O)[C@H](O)[C@H]1O", "Tested On": "Crude diglycosidase", "Result Value": 56.1}
{"Smiles Record": "COc1cc2c(=O)c(-c3ccc(O)cc3)coc2cc1O[C@@H]1O[C@H](COC(C)=O)[C@@H](O)[C@H](O)[C@H]1O", "Tested On": "Crude diglycosidase", "Result Value": 31.8}
{"Smiles Record": "COc1cc2c(=O)c(-c3ccc(O)cc3)coc2cc1O", "Tested On": "Crude diglycosidase", "Result Value": 11.7}
{"Smiles Record": "COc1cc2c(=O)c(-c3ccc(O)cc3)coc2cc1O[C@@H]1O[C@H](COC(=O)CC(=O)O)[C@@H](O)[C@H](O)[C@H]1O", "Tested On": "Crude diglycosidase", "Result Value": 0.4}
